- experimental-system: Thyrotropin-releasing hormone receptor (Homo sapiens) (UniProt P34981)
- Sequence (P34981 whole entry, looked up): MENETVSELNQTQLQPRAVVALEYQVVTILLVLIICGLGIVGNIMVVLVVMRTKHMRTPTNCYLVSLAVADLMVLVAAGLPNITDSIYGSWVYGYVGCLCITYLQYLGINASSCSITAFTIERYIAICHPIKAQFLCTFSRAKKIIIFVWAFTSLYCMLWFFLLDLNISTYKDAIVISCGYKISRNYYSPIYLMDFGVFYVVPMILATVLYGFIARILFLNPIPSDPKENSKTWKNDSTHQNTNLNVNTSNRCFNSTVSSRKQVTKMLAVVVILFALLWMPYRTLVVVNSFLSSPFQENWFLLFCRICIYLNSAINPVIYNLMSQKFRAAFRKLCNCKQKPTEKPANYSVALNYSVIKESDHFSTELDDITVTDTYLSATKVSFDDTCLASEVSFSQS
- assay-text: qHTS assay to identify small molecule agonists of the thyrotropin-releasing hormone receptor (TRHR) signaling pathway (AID 1346891);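 further: HEK293 cells expressing TRHR with calcium dye readout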
- condition-description: TRHR-HEK293 calcium fluorescence, agonist mode; series mostly up to 57.6 µM
- Excerpt: National Center for Advancing Translational Sciences [NCATS] NIH Chemical Genomics Center [NCGC] U.S. Environmental Protection Agency [EPA] National Institutes of Environmental Health Sciences [NIEHS] National Toxicology Program [NTP] […] A compound/drug can either activate (agonist) or suppress (antagonist) GPCRs that can be monitored by levels of intracellular calcium. […]
The source made the active and inactive calls. The call rests on the fitted dose curve.

- compound: "CCCCCCCCCI"
  outcome: "inactive"
- compound: "C=CCc1ccccc1OCC(O)CNC(C)C (centres undefined)"
  outcome: "inactive"
- compound: "CCn1cc(C(=O)O)c(=O)c2cc(F)c(N3CCNCC3)cc21"
  outcome: "inactive"
- compound: "CC(C)C[C@H](NC(=O)[C@H](CCc1ccccc1)NC(=O)CN1CCOCC1)C(=O)N[C@@H](Cc1ccccc1)C(=O)N[C@@H](CC(C)C)C(=O)[C@@]1(C)CO1"
  outcome: "inactive"
- compound: "CC[C@]1(O)C[C@H]2CN(CCc3c([nH]c4ccccc34)[C@@](C(=O)OC)(c3cc4c(cc3OC)N(C=O)[C@H]3[C@@](O)(C(=O)OC)[C@H](OC(C)=O)[C@]5(CC)C=CCN6CC[C@]43[C@@H]65)C2)C1"
  outcome: "inactive"
- compound: "Cc1cc(O)ccc1O"
  outcome: "inactive"
- compound: "CCCCCCCCOc1ccc(C(=O)O)cc1"
  outcome: "inactive"
- compound: "CCOC(C)=O"
  outcome: "inactive"
- compound: "O=C(O)c1ccc(OCCCOc2ccc(C(=O)O)cc2)cc1"
  outcome: "inactive"
- compound: "CCCCCCCC/C=C\\CCCCCCCCO"
  outcome: "inactive"
- compound: "C=C(C)C(=O)OCCCCCCCCCCCCC"
  outcome: "inactive"
- compound: "O=C1c2ccccc2C(=O)c2c(O)c(O)cc(O)c21"
  outcome: "inactive"
- compound: "O=C(O)c1cccc(-c2noc(-c3ccccc3F)n2)c1"
  outcome: "inactive"
- compound: "CN1C(=O)c2ccccc2C1=O"
  outcome: "inactive"
- compound: "O=C(O)C[C@H](NC(=O)OCc1ccccc1)C(=O)O"
  outcome: "inactive"
- compound: "CCCCCCNC(=O)n1cc(F)c(=O)[nH]c1=O"
  outcome: "inactive"
- compound: "CC1=C(CC=O)C(C)(C)CCC1"
  outcome: "inactive"
- compound: "Cc1ccc(CO)cc1"
  outcome: "inactive"
- compound: "Cc1cc(C)cc(N)c1"
  outcome: "inactive"
- compound: "CC(C)(O)c1ccc(CNC(=O)c2cccnc2Oc2ccc3nonc3c2)cc1"
  outcome: "inactive"
- compound: "O=C(OCC(O)CO)c1ccccc1Nc1ccnc2cc(Cl)ccc12 (centres undefined)"
  outcome: "inactive"
- compound: "CCCCCCCCCCC(=O)O"
  outcome: "inactive"
- compound: "COc1ncnc(NS(=O)(=O)c2ccc(N)cc2)c1OC"
  outcome: "inactive"
- compound: "O=C(/C=C/c1ccc(O)c(O)c1)O[C@@H]1C[C@@](OC(=O)/C=C/c2ccc(O)c(O)c2)(C(=O)O)C[C@@H](O)[C@@H]1O"
  outcome: "inactive"

* * *

- assay-text: qHTS assay to identify small molecule agonists of the constitutive androstane receptor (CAR) signaling pathway - cell viability counter screen (AID 1224836); further: nearly all actives have a fitted effect of over 45% in size
- condition-description: HepG2-CYP2B6-hCAR viability, CellTiter-Fluor, 23 h, PK11195 added to every well; series mostly up to 92.4 µM
Records with an inconclusive call do not appear. Calls of active or inactive are those of the source. The call rests on the fitted dose curve; in most records, active means well fitted cell-killing curve with a large enough effect in the repeat runs; inconclusive means weak or mixed curves, or effect the other way; inactive means flat fitted curve, though single readings scatter.
Labels: active, inactive

- compound: "CCC(=O)C1CC(C(C)C)CC=C1C (centres undefined)"
  label-value: "inactive"
- compound: "Oc1c(I)cc(I)c2cccnc12"
  label-value: "inactive"
- compound: "CCC1NC(=O)c2cc(S(N)(=O)=O)c(Cl)cc2N1 (centres undefined)"
  label-value: "inactive"
- compound: "CC(C)COCC(CN(Cc1ccccc1)c1ccccc1)N1CCCC1 (centres undefined)"
  label-value: "active"

* * *

- experimental-system: Nuclear receptor subfamily 1 group I member 3 (Homo sapiens) (UniProt Q14994)
- Sequence (Q14994 whole entry, looked up): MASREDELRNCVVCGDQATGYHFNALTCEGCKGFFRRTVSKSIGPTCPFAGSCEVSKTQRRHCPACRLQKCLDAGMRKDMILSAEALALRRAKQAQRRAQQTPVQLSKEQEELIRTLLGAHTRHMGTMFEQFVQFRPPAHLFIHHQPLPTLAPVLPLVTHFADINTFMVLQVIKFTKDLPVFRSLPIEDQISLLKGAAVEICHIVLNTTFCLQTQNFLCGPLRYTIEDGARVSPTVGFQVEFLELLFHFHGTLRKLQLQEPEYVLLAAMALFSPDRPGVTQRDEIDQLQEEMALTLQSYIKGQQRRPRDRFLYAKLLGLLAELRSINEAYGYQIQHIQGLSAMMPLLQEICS
- assay-text: qHTS assay to identify small molecule antagonists of the constitutive androstane receptor (CAR) signaling pathway (AID 1224838);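 further: HepG2 cells stably expressing hCAR with CYP2B6 luciferase reporter stimulated by CITCO; nearly all actives have a fitted effect of over 40% in size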
- condition-description: HepG2-CYP2B6-hCAR luciferase, CITCO-stimulated, 24 h; series mostly up to 92.4 µM
- Source text: U.S. Tox21 Program National Center for Advancing Translational Sciences [NCATS] NIH Chemical Genomics Center [NCGC] U.S. Environmental Protection Agency [EPA] National Institutes of Environmental Health Sciences [NIEHS] National Toxicology Program [NTP] U.S. Food and Drug Administration [FDA] […] Tox21 Assay Protocol Summary: A double-stable (hCAR and CYP2B6-2.2kb) transfected cell line, derived from human hepatoma (HepG2) cells, was utilized for the duration of the quantitative high-throughput screens. […]
Inconclusive results are not listed. Activity calls are given as the source filed them. Calls follow the shape of the dose curve; as a rule, active = well fitted inhibition curve with a large enough effect in the repeat runs; inconclusive = weak or mixed curves, or effect the other way; inactive = no such curve, though single readings can be large or run the other way.
Outcomes: active, inactive

- molecule: "CCC(C)(C)OC"
  label-value: "inactive"
- molecule: "CN1C[C@H](C(=O)N[C@]2(C)O[C@@]3(O)[C@@H]4CCCN4C(=O)[C@H](Cc4ccccc4)N3C2=O)C[C@@H]2c3cccc4[nH]cc(c34)C[C@H]21"
  label-value: "inactive"
- molecule: "COc1ccccc1Oc1c(NS(=O)(=O)c2ccc(C(C)(C)C)cc2)nc(-c2ncccn2)nc1OCCO"
  label-value: "inactive"
- molecule: "C=C(C)C(=O)OCCCCCCCCCCCCC"
  label-value: "inactive"
- molecule: "CN1CCCN=C1COC(=O)C(O)(c1ccccc1)C1CCCCC1 (stereo unspecified)"
  label-value: "inactive"
- molecule: "O=c1[nH]ncc2ccccc12"
  label-value: "inactive"
- molecule: "Cc1cccc(N(C)C(=S)Oc2ccc3c(c2)CCC3)c1"
  label-value: "inactive"
- molecule: "CCCCCCCCCCCCCCN(CCO)CCO"
  label-value: "active"
- molecule: "CCOC(=O)c1ccc(O)c(O)c1"
  label-value: "inactive"
- molecule: "CC1CC(C)C(=O)C1=O (stereo unspecified)"
  label-value: "inactive"
- molecule: "O=C(O)CCc1nc(-c2ccccc2)c(-c2ccccc2)o1"
  label-value: "inactive"
- molecule: "CCC(=O)C1CC(C(C)C)CC=C1C (stereo unspecified)"
  label-value: "inactive"
- molecule: "Clc1ccc(Nc2nnc(Cc3ccncc3)c3ccccc23)cc1"
  label-value: "inactive"
- molecule: "C=CC(=O)[O-].C=CC(=O)[O-].[Zn+2]"
  label-value: "inactive"
- molecule: "O=C(O)CCCCCCCCCCCBr"
  label-value: "inactive"
- molecule: "CCC(=O)OC"
  label-value: "inactive"
- molecule: "OC[C@H]1O[C@@H](n2cnc3c(=S)nc[nH]c32)[C@H](O)[C@@H]1O"
  label-value: "active"
- molecule: "CC(CCC(=O)O)C(=O)O (stereo unspecified)"
  label-value: "inactive"
- molecule: "CCCCCCCCN"
  label-value: "inactive"
- molecule: "Oc1cccc(O)c1O"
  label-value: "inactive"
- molecule: "Clc1cc(Cl)nc(Cl)n1"
  label-value: "inactive"
- molecule: "CC(=O)Nc1cc(S(=O)(=O)O)cc2cc(S(=O)(=O)O)c(N=Nc3ccccc3)c(O)c12"
  label-value: "inactive"
- molecule: "O=C(Nc1cccc2c(=O)cc(-c3nn[nH]n3)oc12)c1ccc(OCCCCc2ccccc2)cc1"
  label-value: "inactive"
- molecule: "CN1C(C(=O)Nc2ccccn2)=C(O)c2sccc2S1(=O)=O"
  label-value: "inactive"
- molecule: "COc1ncnc(NS(=O)(=O)c2ccc(N)cc2)c1OC"
  label-value: "inactive"
- molecule: "COc1ccccc1NC(=O)c1cc2ccccc2cc1O"
  label-value: "inactive"

* * *

- assay-text: qHTS RealTime-Glo MT Cell Viability Assay in HepG2 cells - 8 hour (AID 1224873); further: nearly all actives have a fitted effect of over 55% in size
- condition-description: RealTime-Glo luminescence; series mostly up to 76.8 µM
Inconclusive results are not listed. Active and inactive are the calls of the source. The call rests on the fitted dose curve; in most records, active means well fitted cell-killing curve with a large enough effect in the repeat runs; inconclusive means weak or mixed curves; inactive means flat fitted curve, though single readings scatter.
Labels: 1 (yes) (active), 0 (no) (inactive)

- molecule: "OC1(c2ccccc2)CCNCC1"
  label-value: "0 (no)"
- molecule: "CCCCCC[C@@H](O)C/C=C\\CCCCCCCC(=O)OCC(O)CO (some centres not stated)"
  label-value: "0 (no)"
- molecule: "CCC=CC#N"
  label-value: "0 (no)"
- molecule: "CCCCC(CC)COP(=O)(O)O (configuration not stated)"
  label-value: "0 (no)"
- molecule: "O=C(/C=C/c1ccc(O)c(O)c1)O[C@@H]1C[C@@](OC(=O)/C=C/c2ccc(O)c(O)c2)(C(=O)O)C[C@@H](O)[C@@H]1O"
  label-value: "0 (no)"
- molecule: "C=C1c2cccc(O)c2C(O)=C2C(=O)[C@]3(O)C(O)=C(C(N)=O)C(=O)[C@@H](N(C)C)[C@@H]3[C@@H](O)[C@H]12"
  label-value: "0 (no)"
- molecule: "COc1cc(N)c(Cl)cc1C(=O)NC1CCN(CCCOc2ccc(F)cc2)CC1OC (configuration not stated)"
  label-value: "0 (no)"
- molecule: "OC[C@H]1O[C@@H](n2cnc3c(=S)nc[nH]c32)[C@H](O)[C@@H]1O"
  label-value: "0 (no)"
- molecule: "NC1[C@H]2CN(c3nc4c(cc3F)c(=O)c(C(=O)O)cn4-c3ccc(F)cc3F)C[C@@H]12 (some centres not stated)"
  label-value: "0 (no)"
- molecule: "C[C@@H]1CC(=O)NN=C1c1ccc(NN=C(C#N)C#N)cc1"
  label-value: "0 (no)"
- molecule: "CO[C@]1(NC(=O)CSC(F)F)C(=O)N2C(C(=O)O)=C(CSc3nnnn3CCO)CO[C@H]21"
  label-value: "0 (no)"
- molecule: "Oc1ccc(Cl)c2cccnc12"
  label-value: "0 (no)"
- molecule: "CCOC(=O)OC(C)OC(=O)[C@@H]1N2C(=O)[C@@H](NC(=O)[C@H](N)c3ccccc3)[C@H]2SC1(C)C (some centres not stated)"
  label-value: "0 (no)"
- molecule: "CC(C)COCC(CN(Cc1ccccc1)c1ccccc1)N1CCCC1 (configuration not stated)"
  label-value: "1 (yes)"
- molecule: "CCCCCCC(C)(C)C(=O)O"
  label-value: "0 (no)"
- molecule: "Cc1cscn1"
  label-value: "0 (no)"
- molecule: "CC(=O)Nc1ccc(C)cc1C"
  label-value: "0 (no)"
- molecule: "CC(C)Nc1cccnc1N1CCN(C(=O)c2cc3cc(NS(C)(=O)=O)ccc3[nH]2)CC1"
  label-value: "0 (no)"
- molecule: "CN1C(=O)OC(C)(C)C1=O"
  label-value: "0 (no)"
- molecule: "OC(CCN1CCCC1)(c1ccccc1)C1CCCCC1 (configuration not stated)"
  label-value: "0 (no)"
- molecule: "CCC(=O)OC"
  label-value: "0 (no)"
- molecule: "O=C1c2ccccc2C(=O)c2c(O)c(O)cc(O)c21"
  label-value: "0 (no)"
- molecule: "N#CCCN(CCO)CCO"
  label-value: "0 (no)"
- molecule: "C=CC(C)(CCC=C(C)C)OC(=O)CC(C)C (configuration not stated)"
  label-value: "0 (no)"
- molecule: "CCCCCCCCC(CCCCCC)C(=O)O (configuration not stated)"
  label-value: "0 (no)"
- molecule: "CC(C)(C)C(=O)C(=O)O"
  label-value: "0 (no)"
- molecule: "CC(O)c1ccccc1 (configuration not stated)"
  label-value: "0 (no)"
- molecule: "O=C(O)C[C@H](NC(=O)OCc1ccccc1)C(=O)O"
  label-value: "0 (no)"
- molecule: "CC(=O)OCC(=O)NCCCOc1cccc(CN2CCCCC2)c1"
  label-value: "0 (no)"
- molecule: "O=c1c(O)c(-c2ccc(O)cc2)oc2cc(O)cc(O)c12"
  label-value: "0 (no)"
- molecule: "O=C(OC(=O)c1ccccc1)c1ccccc1"
  label-value: "0 (no)"
- molecule: "CCCC(C(=O)OCCN(CC)CC)(c1ccccc1)c1ccccc1"
  label-value: "0 (no)"
- molecule: "C=COCC(C)C"
  label-value: "0 (no)"
- molecule: "CCCCN(CCCC)C(C(N)=O)c1ccc(OC)cc1 (configuration not stated)"
  label-value: "0 (no)"
- molecule: "CC1=C(CC=O)C(C)(C)CCC1"
  label-value: "0 (no)"
- molecule: "Cc1ccccc1N=C(N)Nc1ccccc1C"
  label-value: "0 (no)"
- molecule: "CC(C)=CCC/C(C)=C/CC/C(C)=C/CCC(=O)OC/C=C(\\C)CCC=C(C)C"
  label-value: "0 (no)"
- molecule: "C=C1CCC2CC1C2(C)C (configuration not stated)"
  label-value: "0 (no)"
- molecule: "C[C@@H](CN(C)C)CN1c2ccccc2Sc2ccccc21"
  label-value: "0 (no)"
- molecule: "C=C/C(C)=C/C/C=C(\\C)CCC=C(C)C"
  label-value: "0 (no)"
- molecule: "CCCCN(CCN(CCCC)C(=O)N1CCOCC1)C(=O)N1CCOCC1"
  label-value: "0 (no)"
- molecule: "Nc1nnc(-c2ccc([N+](=O)[O-])o2)o1"
  label-value: "0 (no)"
- molecule: "O=C(Nc1cccc2c(=O)cc(-c3nn[nH]n3)oc12)c1ccc(OCCCCc2ccccc2)cc1"
  label-value: "0 (no)"
- molecule: "CN1CCCC(n2nc(Cc3ccc(Cl)cc3)c3ccccc3c2=O)CC1 (configuration not stated)"
  label-value: "0 (no)"
- molecule: "CCCC(=O)C(=O)O"
  label-value: "0 (no)"
- molecule: "CCCCCCCC/C=C\\CCCCCCCCCCCC(=O)O"
  label-value: "0 (no)"
- molecule: "Oc1cccc(O)c1O"
  label-value: "0 (no)"
- molecule: "O=c1cc(-c2ccccc2)oc2ccc3ccccc3c12"
  label-value: "0 (no)"
- molecule: "CC(CO)CO"
  label-value: "0 (no)"
- molecule: "CO/N=C(/C(=O)N[C@@H]1C(=O)N2C(C(=O)O)=C(COC(N)=O)CS[C@H]12)c1ccco1"
  label-value: "0 (no)"
- molecule: "CCc1ccccc1"
  label-value: "0 (no)"
- molecule: "O=c1[nH]c2ccc(Cl)cc2o1"
  label-value: "0 (no)"
